Reference source for all entries: ChEMBL document CHEMBL4433205

Reported Ki is given for each of the following compounds.
Target of assay: UniProt:P41145
Sequence (P41145 whole entry): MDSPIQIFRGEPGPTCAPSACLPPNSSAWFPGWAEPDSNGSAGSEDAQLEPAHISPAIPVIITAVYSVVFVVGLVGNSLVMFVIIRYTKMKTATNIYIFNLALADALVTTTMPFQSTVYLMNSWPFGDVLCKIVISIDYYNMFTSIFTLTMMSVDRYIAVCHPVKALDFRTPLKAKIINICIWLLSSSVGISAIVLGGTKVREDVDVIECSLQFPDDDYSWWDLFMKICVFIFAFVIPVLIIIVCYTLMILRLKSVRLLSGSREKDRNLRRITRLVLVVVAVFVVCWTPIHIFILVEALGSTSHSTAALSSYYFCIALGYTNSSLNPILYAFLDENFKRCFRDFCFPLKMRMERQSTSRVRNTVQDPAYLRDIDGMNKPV

{"Substance smiles": "Cc1cc(O)cc(C)c1C[C@H](N)C(=O)N[C@@H]1CCN(S(C)(=O)=O)c2ccc(Cc3ccccc3)cc21.O=C(O)C(F)(F)F", "Ki": "8 nM"}
{"Substance smiles": "Cc1cc(O)cc(C)c1C[C@H](N)C(=O)N[C@@H]1CCN(S(C)(=O)=O)c2ccc(Cc3ccc4ccccc4c3)cc21.O=C(O)C(F)(F)F", "Ki": "27 nM"}
{"Substance smiles": "Cc1cc(O)cc(C)c1C[C@H](N)C(=O)N[C@@H]1CCN(C(=O)c2ccccc2)c2ccc(CN3CCc4ccccc4C3)cc21.O=C(O)C(F)(F)F", "Ki": "160 nM"}
{"Substance smiles": "Cc1cc(O)cc(C)c1C[C@H](N)C(=O)N[C@@H]1CCN(C(=O)c2ccccc2)c2ccc(Cc3cnc4ccccc4c3)cc21.O=C(O)C(F)(F)F", "Ki": "100 nM"}
{"Substance smiles": "CC(=O)N1CC[C@@H](NC(=O)[C@@H](N)Cc2c(C)cc(O)cc2C)c2cc(Cc3ccc4c(c3)OCCO4)ccc21.O=C(O)C(F)(F)F", "Ki": "142 nM"}
{"Substance smiles": "CC(=O)N1CC[C@@H](NC(=O)[C@@H](N)Cc2c(C)cc(O)cc2C)c2cc(Cc3cc4ccccc4o3)ccc21", "Ki": "58 nM"}
{"Substance smiles": "Cc1cc(O)cc(C)c1C[C@H](N)C(=O)N[C@@H]1CCN(C(=O)C2CC2)c2ccc(CN3CCc4ccccc4C3)cc21.O=C(O)C(F)(F)F", "Ki": "40 nM"}
{"Substance smiles": "Cc1cc(O)cc(C)c1C[C@H](N)C(=O)N[C@@H]1CCN(S(C)(=O)=O)c2ccc(Cc3ccc4c(c3)OCCO4)cc21.O=C(O)C(F)(F)F", "Ki": "46 nM"}
{"Substance smiles": "Cc1cc(O)cc(C)c1C[C@H](N)C(=O)N[C@@H]1CCN(C(=O)c2ccccc2)c2ccc(Cc3cc4ccccc4o3)cc21.O=C(O)C(F)(F)F", "Ki": "100 nM"}
{"Substance smiles": "Cc1cc(O)cc(C)c1C[C@H](N)C(=O)N[C@@H]1CCN(S(C)(=O)=O)c2ccc(CN3CCc4ccccc4C3)cc21.O=C(O)C(F)(F)F", "Ki": "1.1 nM"}
{"Substance smiles": "CC(=O)N1CC[C@@H](NC(=O)[C@@H](N)Cc2c(C)cc(O)cc2C)c2cc(Cc3cnc4ccccc4c3)ccc21.O=C(O)C(F)(F)F", "Ki": "53 nM"}
{"Substance smiles": "Cc1cc(O)cc(C)c1C[C@H](N)C(=O)N[C@@H]1CCN(C(=O)c2ccccc2)c2ccc(Cc3ccc4ccccc4c3)cc21.O=C(O)C(F)(F)F", "Ki": "160 nM"}
{"Substance smiles": "Cc1cc(O)cc(C)c1C[C@H](N)C(=O)N[C@@H]1CCNc2ccc(CN3CCc4ccccc4C3)cc21.O=C(O)C(F)(F)F", "Ki": "2.2 nM"}
{"Substance smiles": "CC(=O)N1CC[C@@H](NC(=O)[C@@H](N)Cc2c(C)cc(O)cc2C)c2cc(CN3CCc4ccccc4C3)ccc21.O=C(O)C(F)(F)F", "Ki": "0.78 nM"}
{"Substance smiles": "Cc1cc(O)cc(C)c1C[C@H](N)C(=O)N[C@@H]1CCN(S(C)(=O)=O)c2ccc(Cc3cnc4ccccc4c3)cc21.O=C(O)C(F)(F)F", "Ki": "7 nM"}
{"Substance smiles": "Cc1cc(O)cc(C)c1C[C@H](N)C(=O)N[C@@H]1CCN(C(=O)C2CC2)c2ccc(Cc3ccc4c(c3)OCCO4)cc21.O=C(O)C(F)(F)F", "Ki": "412 nM"}
{"Substance smiles": "Cc1cc(O)cc(C)c1C[C@H](N)C(=O)N[C@@H]1CCN(C(=O)c2ccccc2)c2ccc(Cc3ccc4c(c3)OCCO4)cc21.O=C(O)C(F)(F)F", "Ki": "240 nM"}
{"Substance smiles": "Cc1cc(O)cc(C)c1C[C@H](N)C(=O)N[C@@H]1CCN(C(=O)C2CC2)c2ccc(Cc3ccc4ccccc4c3)cc21", "Ki": "117 nM"}
{"Substance smiles": "Cc1cc(O)cc(C)c1C[C@H](N)C(=O)N[C@@H]1CCNc2ccc(Cc3cnc4ccccc4c3)cc21.O=C(O)C(F)(F)F", "Ki": "16 nM"}

* * *

Values of pKi reported for UniProt P33535 appear below.
pKi: −log10 of the molar value.

{"Substance smiles": "Cc1cc(O)cc(C)c1C[C@H](N)C(=O)N[C@@H]1CCN(S(C)(=O)=O)c2ccc(Cc3cnc4ccccc4c3)cc21.O=C(O)C(F)(F)F", "pKi": 9.64}
{"Substance smiles": "Cc1cc(O)cc(C)c1C[C@H](N)C(=O)N[C@@H]1CCN(C(=O)c2ccccc2)c2ccc(Cc3ccc4ccccc4c3)cc21.O=C(O)C(F)(F)F", "pKi": 9.59}
{"Substance smiles": "Cc1cc(O)cc(C)c1C[C@H](N)C(=O)N[C@@H]1CCN(S(C)(=O)=O)c2ccc(Cc3cc4ccccc4o3)cc21.O=C(O)C(F)(F)F", "pKi": 10.30}
{"Substance smiles": "Cc1cc(O)cc(C)c1C[C@H](N)C(=O)N[C@@H]1CCN(C(=O)c2ccccc2)c2ccc(CN3CCc4ccccc4C3)cc21.O=C(O)C(F)(F)F", "pKi": 9.43}
{"Substance smiles": "Cc1cc(O)cc(C)c1C[C@H](N)C(=O)N[C@@H]1CCN(C(=O)C2CC2)c2ccc(Cc3ccc4ccccc4c3)cc21", "pKi": 10.30}
{"Substance smiles": "Cc1cc(O)cc(C)c1C[C@H](N)C(=O)N[C@@H]1CCN(S(C)(=O)=O)c2ccc(Cc3ccccc3)cc21.O=C(O)C(F)(F)F", "pKi": 10.22}
{"Substance smiles": "Cc1cc(O)cc(C)c1C[C@H](N)C(=O)N[C@@H]1CCNc2ccc(CN3CCc4ccccc4C3)cc21.O=C(O)C(F)(F)F", "pKi": 10.52}

* * *

Listing of recorded Ki by entry.
Target of assay: Mu-type opioid receptor (Rattus norvegicus)
Sequence (P33535 whole entry): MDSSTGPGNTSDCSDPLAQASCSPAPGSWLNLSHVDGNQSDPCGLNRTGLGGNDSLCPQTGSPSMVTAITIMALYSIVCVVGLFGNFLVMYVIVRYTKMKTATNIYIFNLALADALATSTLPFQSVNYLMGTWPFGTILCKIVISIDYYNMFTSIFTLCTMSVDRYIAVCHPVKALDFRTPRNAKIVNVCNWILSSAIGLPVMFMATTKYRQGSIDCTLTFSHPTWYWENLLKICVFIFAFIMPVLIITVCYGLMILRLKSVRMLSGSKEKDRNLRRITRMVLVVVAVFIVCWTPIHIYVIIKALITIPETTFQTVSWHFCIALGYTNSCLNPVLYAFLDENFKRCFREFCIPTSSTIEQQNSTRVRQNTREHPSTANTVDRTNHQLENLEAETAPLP
Endpoint label: Ki (nM)

{"Substance smiles": "Cc1cc(O)cc(C)c1C[C@H](N)C(=O)N[C@@H]1CCN(C(=O)C2CC2)c2ccc(Cc3cc4ccccc4o3)cc21.O=C(O)C(F)(F)F", "Reported": 0.05}
{"Substance smiles": "Cc1cc(O)cc(C)c1C[C@H](N)C(=O)N[C@@H]1CCN(C(=O)C2CC2)c2ccc(Cc3cnc4ccccc4c3)cc21.O=C(O)C(F)(F)F", "Reported": 0.05}
{"Substance smiles": "Cc1cc(O)cc(C)c1C[C@H](N)C(=O)N[C@@H]1CCN(C(=O)C2CC2)c2ccc(CN3CCc4ccccc4C3)cc21.O=C(O)C(F)(F)F", "Reported": 0.12}
{"Substance smiles": "Cc1cc(O)cc(C)c1C[C@H](N)C(=O)N[C@@H]1CCN(C(=O)c2ccccc2)c2ccc(Cc3cc4ccccc4o3)cc21.O=C(O)C(F)(F)F", "Reported": 0.35}
{"Substance smiles": "Cc1cc(O)cc(C)c1C[C@H](N)C(=O)N[C@@H]1CCN(S(C)(=O)=O)c2ccc(CN3CCc4ccccc4C3)cc21.O=C(O)C(F)(F)F", "Reported": 0.11}
{"Substance smiles": "CC(=O)N1CC[C@@H](NC(=O)[C@@H](N)Cc2c(C)cc(O)cc2C)c2cc(Cc3cc4ccccc4o3)ccc21", "Reported": 0.12}
{"Substance smiles": "Cc1cc(O)cc(C)c1C[C@H](N)C(=O)N[C@@H]1CCN(C(=O)C2CC2)c2ccc(Cc3ccc4c(c3)OCCO4)cc21.O=C(O)C(F)(F)F", "Reported": 0.28}
{"Substance smiles": "CC(=O)N1CC[C@@H](NC(=O)[C@@H](N)Cc2c(C)cc(O)cc2C)c2cc(CN3CCc4ccccc4C3)ccc21.O=C(O)C(F)(F)F", "Reported": 0.19}
{"Substance smiles": "CC(=O)N1CC[C@@H](NC(=O)[C@@H](N)Cc2c(C)cc(O)cc2C)c2cc(Cc3ccc4c(c3)OCCO4)ccc21.O=C(O)C(F)(F)F", "Reported": 0.38}
{"Substance smiles": "Cc1cc(O)cc(C)c1C[C@H](N)C(=O)N[C@@H]1CCN(S(C)(=O)=O)c2ccc(Cc3ccc4ccccc4c3)cc21.O=C(O)C(F)(F)F", "Reported": 0.04}
{"Substance smiles": "Cc1cc(O)cc(C)c1C[C@H](N)C(=O)N[C@@H]1CCNc2ccc(Cc3cnc4ccccc4c3)cc21.O=C(O)C(F)(F)F", "Reported": 0.1}
{"Substance smiles": "Cc1cc(O)cc(C)c1C[C@H](N)C(=O)N[C@@H]1CCN(C(=O)c2ccccc2)c2ccc(Cc3ccc4c(c3)OCCO4)cc21.O=C(O)C(F)(F)F", "Reported": 1.5}
{"Substance smiles": "Cc1cc(O)cc(C)c1C[C@H](N)C(=O)N[C@@H]1CCN(S(C)(=O)=O)c2ccc(Cc3ccc4c(c3)OCCO4)cc21.O=C(O)C(F)(F)F", "Reported": 0.07}
{"Substance smiles": "CC(=O)N1CC[C@@H](NC(=O)[C@@H](N)Cc2c(C)cc(O)cc2C)c2cc(Cc3cnc4ccccc4c3)ccc21.O=C(O)C(F)(F)F", "Reported": 0.15}
{"Substance smiles": "Cc1cc(O)cc(C)c1C[C@H](N)C(=O)N[C@@H]1CCN(C(=O)c2ccccc2)c2ccc(Cc3cnc4ccccc4c3)cc21.O=C(O)C(F)(F)F", "Reported": 0.04}
